Data origin, for the record: paper PMC9297976

# Test system: Japanese medaka (Oryzias latipes)
# protocol: Fish Short‐Term Reproduction Assay
# Type: in vivo
# test conditions: lowest observed effect concentration on mortality
property measured: LOECTOX

GET /value?item= CC(C)(c1ccc(O)cc1)c1ccc(O)cc1 [BPA, Bisphenol A] &field=LOECTOX returns 4,670 μg/L

GET /value?item= CCOP(=S)(OCC)Oc1cc(C)nc(C(C)C)n1 [DZ, Diazinon] &field=LOECTOX returns 196 µg/L

====

# subject of test: medaka ARβ (mArβ) (Oryzias latipes, UniProt D1MV73)
# Sequence (D1MV73 1-744): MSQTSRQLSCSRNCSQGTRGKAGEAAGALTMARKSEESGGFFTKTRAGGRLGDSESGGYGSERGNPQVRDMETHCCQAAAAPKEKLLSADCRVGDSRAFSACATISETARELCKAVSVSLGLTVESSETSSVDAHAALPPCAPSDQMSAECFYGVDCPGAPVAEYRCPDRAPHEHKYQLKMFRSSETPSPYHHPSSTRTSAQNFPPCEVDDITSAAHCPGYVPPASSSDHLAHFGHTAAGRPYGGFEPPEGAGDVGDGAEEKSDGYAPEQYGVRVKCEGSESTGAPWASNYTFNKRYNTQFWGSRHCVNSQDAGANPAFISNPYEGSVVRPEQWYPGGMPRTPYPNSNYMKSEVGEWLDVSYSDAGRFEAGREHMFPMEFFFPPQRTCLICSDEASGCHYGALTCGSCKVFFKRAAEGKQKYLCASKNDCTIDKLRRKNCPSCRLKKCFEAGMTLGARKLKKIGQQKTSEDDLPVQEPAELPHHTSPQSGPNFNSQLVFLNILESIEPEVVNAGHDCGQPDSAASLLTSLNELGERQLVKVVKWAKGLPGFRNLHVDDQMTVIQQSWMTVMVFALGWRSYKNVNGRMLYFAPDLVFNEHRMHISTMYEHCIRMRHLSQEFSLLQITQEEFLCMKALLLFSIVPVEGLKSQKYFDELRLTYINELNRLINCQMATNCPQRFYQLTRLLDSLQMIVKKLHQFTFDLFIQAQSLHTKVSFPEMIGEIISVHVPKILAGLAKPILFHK
# protocol: Medaka ARβ reporter gene assay, agonist assay
# test conditions: read-out: Agonistic activity EC50, geometric mean; positive control, n = 5
property measured: EC50 (nM)
// return numeric value only (unit: nM, not printed)

GET /value?item= C[C@]12CC(=O)[C@H]3[C@@H](CCC4=CC(=O)CC[C@@]43C)[C@@H]1CC[C@@H]2O [Chemical 11KT, 11‐ketotestosterone, reference compound] &field=EC50 returns 5.8
